system: cytokine release induced via FcγR signaling; assay: Whole blood assay: obinutuzumab-induced cytokine release, serum cytokines analyzed by Luminex; type: cell-based; details: summary statement of the description; no conditions given
measured.parameter: cytokine release induced by an NK cell engaging antibody

// worked examples, cytokine release induced by an NK cell engaging antibody included
Entry N#CC[C@H](C1CCCC1)n1cc(-c2ncnc3[nH]ccc23)cn1 [ruxolitinib, Ruxolitinib] , cytokine release induced by an NK cell engaging antibody reported as potently prevent

Entry CO[C@H]1C[C@@H]2CC[C@@H](C)[C@@](O)(O2)C(=O)C(=O)N2CCCC[C@H]2C(=O)O[C@H]([C@H](C)C[C@@H]2CC[C@@H](O)[C@H](OC)C2)CC(=O)[C@H](C)/C=C(\C)[C@@H](O)[C@@H](OC)C(=O)[C@H](C)C[C@H](C)/C=C/C=C/C=C/1C [sirolimus, Sirolimus] , cytokine release induced by an NK cell engaging antibody reported as potently prevent

Entry CO[C@H]1C[C@@H]2CC[C@@H](C)[C@@](O)(O2)C(=O)C(=O)N2CCCC[C@H]2C(=O)O[C@H]([C@H](C)C[C@@H]2CC[C@@H](OCCO)[C@H](OC)C2)CC(=O)[C@H](C)/C=C(\C)[C@@H](O)[C@@H](OC)C(=O)[C@H](C)C[C@H](C)/C=C/C=C/C=C/1C [everolimus, Everolimus] , cytokine release induced by an NK cell engaging antibody reported as potently prevent

Entry Cc1nc(Nc2ncc(C(=O)Nc3c(C)cccc3Cl)s2)cc(N2CCN(CCO)CC2)n1 [dasatinib, monohydrate] , cytokine release induced by an NK cell engaging antibody reported as potently prevent

Let us move to another entry and its cytokine release induced by an NK cell engaging antibody.
Entry CO[C@H]1C[C@@H]2CC[C@@H](C)[C@@](O)(O2)C(=O)C(=O)N2CCCC[C@H]2C(=O)O[C@H]([C@H](C)C[C@@H]2CC[C@@H](OC(=O)C(C)(CO)CO)[C@H](OC)C2)CC(=O)[C@H](C)/C=C(\C)[C@@H](O)[C@@H](OC)C(=O)[C@H](C)C[C@H](C)/C=C/C=C/C=C/1C [temsirolimus, Temsirolimus] , cytokine release induced by an NK cell engaging antibody reported as potently prevent
